Molecular target: P450cam Mutant Y96A (Pseudomonas putida, UniProt P00183, C335A/Y97A)
Assay type: binding, P. putida
With a cut-off of 50, any Mutant Y96A Vs DTT strictly below it is called 1 (yes); any Mutant Y96A Vs DTT meeting it or above is called 0 (no).

> print(dat)
                                   compound                                 tested.on  category.label
1                      c1ccc(CCc2ccccc2)cc1  P450cam Mutant Y96A (Pseudomonas putida, UniProt P00183, C335A/Y97A)          0 (no)
2                                     CCCCC  P450cam Mutant Y96A (Pseudomonas putida, UniProt P00183, C335A/Y97A)         1 (yes)
3  CC1(C)[C@@H]2CC[C@@]1(C)C(=O)C2=O [(1R)-(-)-Camphorquinone]  P450cam Mutant Y96A (Pseudomonas putida, UniProt P00183, C335A/Y97A)          0 (no)
4                                 Cc1ccccc1  P450cam Mutant Y96A (Pseudomonas putida, UniProt P00183, C335A/Y97A)         1 (yes)
5                                  C1CCCCC1  P450cam Mutant Y96A (Pseudomonas putida, UniProt P00183, C335A/Y97A)          0 (no)

* * *

Molecular target: P450cam Y96A (also contains the C334A mutation) (Pseudomonas putida, UniProt P00183, C335A/Y97A)
Construct: reconstituted with putidaredoxin and putidaredoxin reductase
Sequence (P00183 2-415 Y97A/C335A): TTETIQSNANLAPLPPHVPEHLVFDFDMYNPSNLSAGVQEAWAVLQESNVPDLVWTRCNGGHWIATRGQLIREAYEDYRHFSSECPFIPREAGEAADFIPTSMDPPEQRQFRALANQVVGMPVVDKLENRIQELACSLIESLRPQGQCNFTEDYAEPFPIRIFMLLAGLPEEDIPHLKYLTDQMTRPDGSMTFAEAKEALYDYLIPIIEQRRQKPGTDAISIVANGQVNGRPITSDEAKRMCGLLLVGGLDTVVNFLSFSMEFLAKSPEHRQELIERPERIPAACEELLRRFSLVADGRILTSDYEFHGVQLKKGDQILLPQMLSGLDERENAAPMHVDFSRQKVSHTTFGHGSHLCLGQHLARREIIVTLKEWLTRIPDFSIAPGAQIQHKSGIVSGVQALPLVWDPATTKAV
Sequence (P16640 whole entry, further chain): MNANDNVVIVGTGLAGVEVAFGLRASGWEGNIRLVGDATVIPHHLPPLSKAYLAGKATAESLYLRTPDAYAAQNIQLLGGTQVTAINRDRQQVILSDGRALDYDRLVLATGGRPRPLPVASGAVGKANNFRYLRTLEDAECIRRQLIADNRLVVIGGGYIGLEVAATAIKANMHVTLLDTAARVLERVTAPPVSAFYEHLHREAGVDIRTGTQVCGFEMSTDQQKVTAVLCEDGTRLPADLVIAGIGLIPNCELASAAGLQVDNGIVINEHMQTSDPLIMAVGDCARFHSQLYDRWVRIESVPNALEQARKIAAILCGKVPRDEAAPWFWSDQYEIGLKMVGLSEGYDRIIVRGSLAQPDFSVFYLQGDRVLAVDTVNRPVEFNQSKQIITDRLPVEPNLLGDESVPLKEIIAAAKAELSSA
Sequence (P00259 whole entry, further chain): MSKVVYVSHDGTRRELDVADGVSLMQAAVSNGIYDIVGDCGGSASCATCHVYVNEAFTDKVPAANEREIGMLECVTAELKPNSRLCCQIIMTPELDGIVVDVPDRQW
Type: biochemical, P. putida
Conditions: small alkanes
outcome measure: Turnover rate (NADH consumption rate) Y96A

> print(dat)
      smiles.entry                           result
 1      CC(C)C(C)C  16.8 nmole NADH/nmole P450cam/s
 2         CCC(C)C   4.6 nmole NADH/nmole P450cam/s
 3  CC(C)CC(C)(C)C   5.3 nmole NADH/nmole P450cam/s
 4           CCCCC   5.8 nmole NADH/nmole P450cam/s
 5      CCCC(C)CCC  10.2 nmole NADH/nmole P450cam/s
 6     CC(C)CC(C)C  12.6 nmole NADH/nmole P450cam/s
 7      CCC(C)(C)C  14.0 nmole NADH/nmole P450cam/s
 8          CCCCCC   6.0 nmole NADH/nmole P450cam/s
 9        CCCCCCCC   5.8 nmole NADH/nmole P450cam/s
10       CCCCC(C)C  10.6 nmole NADH/nmole P450cam/s
11        CCC(C)CC  14.2 nmole NADH/nmole P450cam/s
12       C1CCCCCC1  42.5 nmole NADH/nmole P450cam/s

* * *

Target: P450cam Mutant Y96A (Pseudomonas putida, UniProt P00183, C335A/Y97A); on Mutant Y96A ΔSpin high/low: unit not given here
Format: binding, P. putida
Details: -- = no shift, nd = not determined
outcome measure: Mutant Y96A ΔSpin high/low

> print(dat)
                                   compound  quantitative.readout
1    C(=C/c1ccccc1)/c1ccccc1 [cis-Stilbene]                    40
2  c1ccc2c(c1)CCCC2 [1,2,3,4-Tetrahydro naphthalene]                    40
3             CC1CCCCC1 [Methylcyclohexane]                   100
4                       CCCCCCCC [n-Octane]                    80
5                    C1CCCCC1 [Cyclohexane]                    60
6     CCc1cccc2ccccc12 [1-Ethylnaphthalene]                     5
